# key: entry, value: MIC
Tested on: Haemophilus influenzae
Assay: Antibacterial activity against Haemophilus influenzae Q1 by broth microdilution method
Type: functional
Please respond with the number in mg/L and leave the unit unwritten.

Guide cases for MIC, answers given:
[[record]]
structure = "O=CN(O)C[C@@H](CC1CCCC1)C(=O)N1CCC[C@H]1C(=O)NC(=O)NCCc1c[nH]cn1"
measured_value = 16

[[record]]
structure = "O=CN(O)C[C@@H](CC1CCCC1)C(=O)N1CCC[C@H]1C(=O)NC(=O)NCCc1ccccc1"
measured_value = 4


Provide MIC value for the following compound: `NC(=O)NC(=O)[C@@H]1CCCN1C(=O)[C@H](CC1CCCC1)CN(O)C=O`
0.125

Provide MIC value for the following compound: `CC(C)C(=O)NC(=O)[C@@H]1CCCN1C(=O)[C@H](CC1CCCC1)CN(O)C=O`
0.5

Provide MIC value for the following compound: `O=CN(O)C[C@@H](CC1CCCC1)C(=O)N1CCC[C@H]1C(=O)NC(=O)OC1CCCCC1`
1

Provide MIC value for the following compound: `O=CN(O)C[C@@H](CC1CCCC1)C(=O)N1CCC[C@H]1C(=O)NC(=O)NCCCc1ccccc1`
8

Provide MIC value for the following compound: `O=CN(O)C[C@@H](CC1CCCC1)C(=O)N1CCC[C@H]1C(=O)NC(=O)NCCc1ccccn1`
1

Provide MIC value for the following compound: `CC(C)NC(=O)NC(=O)[C@@H]1CCCN1C(=O)[C@H](CC1CCCC1)CN(O)C=O`
2
